Just for reference, ChEMBL document CHEMBL1908105 is where these values come from.

- SUBJECT OF TEST: UGT1A9 (Homo sapiens)
- Sequence (O60656 whole entry): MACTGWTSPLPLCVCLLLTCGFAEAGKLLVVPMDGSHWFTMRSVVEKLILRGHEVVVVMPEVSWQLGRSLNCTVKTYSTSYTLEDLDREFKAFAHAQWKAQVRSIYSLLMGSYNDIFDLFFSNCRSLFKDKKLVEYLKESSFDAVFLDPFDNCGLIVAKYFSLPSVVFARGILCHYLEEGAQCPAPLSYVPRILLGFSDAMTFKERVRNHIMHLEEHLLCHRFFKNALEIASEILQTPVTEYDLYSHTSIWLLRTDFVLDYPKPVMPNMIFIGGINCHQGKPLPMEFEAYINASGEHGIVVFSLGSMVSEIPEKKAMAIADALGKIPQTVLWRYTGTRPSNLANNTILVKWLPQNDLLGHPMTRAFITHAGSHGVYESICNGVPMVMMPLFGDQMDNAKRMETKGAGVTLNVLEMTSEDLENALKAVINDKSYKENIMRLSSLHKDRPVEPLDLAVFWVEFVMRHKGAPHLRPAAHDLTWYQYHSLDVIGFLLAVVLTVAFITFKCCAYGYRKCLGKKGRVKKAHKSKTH
- TEST SUMMARY: Inhibition of propofol (assayed at the Km) glucuronidation by human recombinant UGT1A9 (+/- 15% inhibition at 5mM VPA)
- SETUP CONDITIONS: recombinant UGT1A9, probe propofol
READOUT: inhibition at 5000 µM
Express your answer as a number followed by its unit.

Q: Provide value of inhibition at 5000 µM for this record tested with UGT1A9 (Homo sapiens): CCCC(CCC)C(=O)O [VALPROIC ACID]
Ans: 46%

* * *

- SUBJECT OF TEST: UGT1A3 (Homo sapiens)
- Sequence (P35503 whole entry): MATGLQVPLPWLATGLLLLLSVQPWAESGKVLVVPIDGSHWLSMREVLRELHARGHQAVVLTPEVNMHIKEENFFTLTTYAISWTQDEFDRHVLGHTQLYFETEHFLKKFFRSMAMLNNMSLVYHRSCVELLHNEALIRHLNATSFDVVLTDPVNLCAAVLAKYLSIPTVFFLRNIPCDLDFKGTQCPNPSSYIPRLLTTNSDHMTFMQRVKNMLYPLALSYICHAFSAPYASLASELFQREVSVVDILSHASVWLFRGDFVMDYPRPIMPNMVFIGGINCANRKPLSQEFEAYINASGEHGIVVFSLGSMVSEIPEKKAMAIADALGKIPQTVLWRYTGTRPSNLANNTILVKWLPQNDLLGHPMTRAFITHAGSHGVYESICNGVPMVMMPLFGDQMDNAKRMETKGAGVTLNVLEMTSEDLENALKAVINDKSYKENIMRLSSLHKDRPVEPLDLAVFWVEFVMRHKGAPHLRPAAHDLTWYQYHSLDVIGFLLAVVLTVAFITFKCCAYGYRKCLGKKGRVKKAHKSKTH
- TEST SUMMARY: Drug glucuronidation reaction catalyzed by human recombinant UGT1A3
- SETUP CONDITIONS: recombinant UGT1A3
READOUT: Km (µM)
Numbers only, in µM.

CC(C(=O)O)c1ccc(-c2ccccc2)c(F)c1 (configuration not stated) [FLURBIPROFEN] :: 90

Q: Fill blank: measured Km of the molecule O=C(O)Cc1ccccc1Nc1c(Cl)cccc1Cl [DICLOFENAC] is ____.
Ans: 12

* * *

Record form. Attribute: pKi. Fill in for each entry.
- SUBJECT OF TEST: UDP-glucuronosyltransferase 1A10 (Homo sapiens, UniProt Q9HAW8)
- Sequence (Q9HAW8 whole entry): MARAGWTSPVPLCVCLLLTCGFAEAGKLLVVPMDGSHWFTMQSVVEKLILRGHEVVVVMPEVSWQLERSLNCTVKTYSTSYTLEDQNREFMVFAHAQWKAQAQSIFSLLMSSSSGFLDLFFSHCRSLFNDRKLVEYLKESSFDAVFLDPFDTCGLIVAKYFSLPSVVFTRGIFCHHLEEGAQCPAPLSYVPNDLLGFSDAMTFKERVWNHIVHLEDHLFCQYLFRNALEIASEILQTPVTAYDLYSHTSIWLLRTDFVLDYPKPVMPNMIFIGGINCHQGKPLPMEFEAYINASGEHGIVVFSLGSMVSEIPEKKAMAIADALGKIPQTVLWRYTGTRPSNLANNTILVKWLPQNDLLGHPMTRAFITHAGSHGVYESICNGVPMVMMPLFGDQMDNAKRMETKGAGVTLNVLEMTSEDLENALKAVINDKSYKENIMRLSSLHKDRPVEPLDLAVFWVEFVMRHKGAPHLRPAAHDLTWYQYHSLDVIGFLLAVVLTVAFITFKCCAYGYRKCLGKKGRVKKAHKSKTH
- TEST SUMMARY: Inhibition of 4-methylumbelliferone glucuronidation by human recombinant UGT1A10
One number for each entry, as −log10 of the molar value.

CCCN(CCC)S(=O)(=O)c1ccc(C(=O)O)cc1 [PROBENECID] :: 3.64

Shifting focus to the compound that follows.
Q: Fill blank: measured pKi of the compound O=C(O)Cc1ccccc1Nc1c(Cl)cccc1Cl [DICLOFENAC] is ____.
Ans: 4.55

* * *

Record form. Attribute: pKi. Fill in for each entry.
- SUBJECT OF TEST: UDP-glucuronosyltransferase 1A9 (Homo sapiens, UniProt O60656)
- Sequence (O60656 whole entry): as the sequence (O60656 whole entry) above
- TEST SUMMARY: Inhibition of 4-methylumbelliferone glucuronidation by human recombinant UGT1A9
Numbers only, as −log10 of the molar value.

// for each molecule below, give its pKi
1. O=C(O)Cc1ccccc1Nc1c(Cl)cccc1Cl [DICLOFENAC]
2. CCCN(CCC)S(=O)(=O)c1ccc(C(=O)O)cc1 [PROBENECID]

Ans:
1: 4.96; 2: 2.61
